test: Components of the Cytosolic LPS Sensing Pathway: Gene Identification via Genome-wide siRNA Screen; settings: RAW264.7 macrophages, IL-1a HTRF, actives lie on both sides, screened at 100 nM (by protocol), cells primed 5 h with Pam3CSK4 first;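 also: robust z of the log signal after scaling to non-targeting control siRNA wells of the plate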
About 3,700 (7%) of roughly 53,000 sequences were called active. This excerpt belongs to a sample that is enriched for actives.
endpoint: z-score
Field format: numeric only.

Query string: Entry GGCCUCAAACUGAAUAUUATT against Serpina7 : reported z-score = ?
Result string: 0.472

Query string: Then GUCUUCCCUCAUCCUUUGATT against Cox8a ?
Result string: 0.902

Query string: Queued: GGCUGGAUGUAGAAAAUAUTT against Aspm
Result string: -2.1

Query string: Proceed to GCCCUUACAUAAUAGCUUGTT against Tacr2
Result string: 1.56

Query string: Next: GGUCUUACGCAAAACGGUCTT against Csf1r
Result string: 2.86

Query string: Here is the next sequence: GGUCCACUUAGUGGCUUAATT against Atp5pb
Result string: -0.227

Query string: Would you mind doing CCAAUUUGUCAAAACAAUCTT against Slit2 as well?
Result string: 0.681

Query string: Thanks! And GCAUGCCUAAAUUUGGGACTT against Fyb ?
Result string: 0.805

Query string: Record: GGAUAGAGUUAAUGAAAAGTT against Poc5
Result string: 0.827

Query string: Okay, and GGUGUUCAAAAAGUUUAACTT against Zswim1 ?
Result string: 1.02

Query string: Try this sequence next: GGAUUUGUUUUCAGAUGUGTT against Zfp329
Result string: -1.56

Query string: Ok, now GGUCUUUCCCAGGAUUCCATT against Rab19
Result string: -0.837

Query string: Try this sequence too: GCCCAAACGAAAAAUGGCCTT against Abl1
Result string: 2.95

Query string: Try the sequence GCACUAGCAGGAUUCAUUGTT against Gabrb2
Result string: -1.25

Query string: Same lookup for GGAUUCCAGAGAAAUGUGATT against Lrrc66 , please.
Result string: -2.62

Query string: Also GGGACUUAUGUACAACUUCTT against Idua , if possible.
Result string: 1.53

Query string: Same thing, different sequence: GGAGAAAGCCUUCCAAUUUTT against Kel
Result string: -0.273

Query string: Moving on to the next sequence: GGAUAUGCUGAGGUGGUGGTT against Cpsf7
Result string: -1.07

Query string: What about this sequence? GGGCAAAAUCGUGUCAAGCTT against Dpp9
Result string: 0.253

Query string: What do you have for GGUUAUUGGCACUUUUAGATT against Ect2 ?
Result string: 0.0504

Query string: Note, next up: GCUCAUAUACACCAUUUCUTT against Tmem171
Result string: -1.12

Query string: Moving on to CCAACACUACCAGAGAACGTT against Pfkfb1
Result string: -0.808

Query string: Try GGUAGAGAAUUGAAACCUATT against Klhdc10 next.
Result string: -0.776

Query string: What do we get for GGUGCUCAGCAUGUUUGCUTT against Avpr1b ?
Result string: -1.06

Query string: What do you get for CCGAAUAUCGAGUUCCCAATT against Ceacam20 ?
Result string: -0.0196

Query string: Param item: GGAAACUGAAAAACAGAGUTT against Xbp1
Result string: -0.957

Query string: Request: GGCCAAUCAAGAUAGCCACTT against Dnajc1
Result string: 1.12

Query string: Please answer likewise for CCACACUUUUCAGUAUAAUTT against Lin54
Result string: 0.897

Query string: Please do the same for CGAGCUUAUGCUGAAACCATT against 3830417A13Rik as well.
Result string: -2.45

Query string: Continue with GGAAUACAUUCCUUUUAAGTT against Gpx3
Result string: -1.27

Query string: Please answer likewise for CUACCUACUCCAUGUGGUGTT against Gpihbp1
Result string: -0.55

Query string: Now this one: GGAUUCCUGUACAUAUAUUTT against Ube4b
Result string: -0.501

Query string: Then what about the sequence GGGUUCAUUUUUGGCUUUCTT against Serpina3m ?
Result string: 0.0735

Query string: And GGAGUUAGAAACUCAUUUUTT against Ppargc1b ?
Result string: 1.5

Query string: What do you get for GGAUAAUGUGAAGUUCAAGTT against Rpl38 ?
Result string: 0.493

Query string: Repeat with GGAUUUGUAAAUUACCUGGTT against Clec4d
Result string: 0.544

Query string: // query: GGAUUCACGAGCAUAAGCUTT against 1700020D05Rik
Result string: -1.31

###

test: Components of the Cytosolic LPS Sensing Pathway: Gene Identification via Genome-wide siRNA Screen; settings: RAW264.7 macrophages, IL-1a HTRF, actives lie on both sides, screened at 100 nM (by protocol), cells primed 5 h with Pam3CSK4 first;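 also: robust z of the log signal after scaling to non-targeting control siRNA wells of the plate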
About 3,700 (7%) of roughly 53,000 sequences were called active. The sample as a whole holds a higher share of actives than the screen did.
Kindly supply the reported z-score values for the records listed here.

Query string: Please give the measured z-score for this sequence: GGAAUGUGUUGAAAUAUGATT against P4ha3
Result string: 0.0288 (inactive)

Query string: Another: AUGCCUAUACAAUUCUGUGTT against Olfr1167
Result string: 0.0339 (inactive)

Query string: // same read-out, input: CCUACUCCACGGGUAUUUUTT against 1700065D16Rik
Result string: -0.331 (inactive)

Query string: Continue with GGAAGAAGAAGGAGCUAGATT against Slu7
Result string: -2.2 (active)

Query string: Further, for GGAAACCUACCGUUACCUATT against Kcnj5 ?
Result string: -0.181 (inactive)

Query string: Likewise for GGAGCAAGUGAUGAUGACCTT against Pkp1 ?
Result string: -0.263 (inactive)

Query string: Note, next up: CGUAUUAACGACAUAAGAGTT against Nckap1
Result string: -0.169 (inactive)

Query string: Next up: GGGAUGCUCUGAACAUUGATT against Anxa2
Result string: 3.22 (active)

Query string: Cool, now GGAAGACCUUGAAUUCCAGTT against Tspan31
Result string: 2.87 (active)

Query string: GGCUGUCAGUGUUUACAGGTT against Srd5a1 ?
Result string: -0.247 (inactive)

Query string: Further, for CCUCUCAGAUUUUCACAUATT against Zfp599 ?
Result string: 1.36 (inactive)

Query string: One more sequence: GGAUGAUGUUCCCAUGCAATT against Cdca7l
Result string: -0.45 (inactive)

Query string: // query: GGAAGAUACUGUGGUUUAUTT against Agbl3
Result string: 2.29 (active)

Query string: Item: GGUCACGGAGAAACUAAAGTT against Ppme1
Result string: 0.703 (inactive)

Query string: Now consider GGCAACAAAUCAAAGCAGCTT against Anxa7 and answer again.
Result string: 1.4 (inactive)

###

assay: Components of the Cytosolic LPS Sensing Pathway: Gene Identification via Genome-wide siRNA Screen; details: RAW264.7 macrophages, IL-1a HTRF, actives lie on both sides, screened at 100 nM (by protocol), cells primed 5 h with Pam3CSK4 first;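 also: robust z of the log signal after scaling to non-targeting control siRNA wells of the plate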
The campaign covered roughly 53,000 sequences. About 3,700 (7%) were called active. Shown is part of a subset that was picked to be rich in actives.
endpoint: z-score
// no unit string in output, number only

Query string: Need z-score of CCGCCGAUGAGUUUGUUAATT against Hsd17b3 , thanks.
Result string: 1.2

Query string: Now consider GGUCAUCAGUGAUCAGUCATT against Mre11a .
Result string: -1.33

Query string: Also, GGAGUUGGAGAAUGACACGTT against Ift88 please.
Result string: 1.14

###

test: Components of the Cytosolic LPS Sensing Pathway: Gene Identification via Genome-wide siRNA Screen; conditions: RAW264.7 macrophages, IL-1a HTRF, actives lie on both sides, screened at 100 nM (by protocol), cells primed 5 h with Pam3CSK4 first;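 also: robust z of the log signal after scaling to non-targeting control siRNA wells of the plate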
Screen size: about 53,000 sequences; about 3,700 (7%) were called active. Shown is part of a subset that was picked to be rich in actives.
Is z-score at least -0.2? Then fulfilled. If not, not fulfilled.

Query string: Kindly determine if z-score recorded for UGAUAUCGGAACAGAGAUGTT against Tbx15 is above or exactly -0.2.
Result string: not fulfilled

Query string: And what about the sequence CGAGCUCAGGCCUAUUAAATT against Cdh12 ?
Result string: fulfilled

Query string: Please answer likewise for GGAGUAUGAUUCAGAAAUGTT against Scn11a
Result string: not fulfilled

Query string: And then GGGCACACAUAUGACCGUUTT against Rrad , what is it?
Result string: fulfilled

Query string: // query: UGUCAGUGCAGAAUAGCACTT against Olfr658
Result string: not fulfilled

Query string: Entry to check: GGGAAUGCUUAUGUAGGCATT against Aldh3b1
Result string: not fulfilled

Query string: Repeat with GGAGUUUCAGCAGUCGUGATT against Prkrip1
Result string: not fulfilled

Query string: Note, next up: GGUGUUAGCUUCUCAAAAUTT against Cltrn
Result string: fulfilled

Query string: Next: GGACCACUCUGAAUAAGACTT against Ttc12
Result string: not fulfilled

Query string: Same lookup for GCUGCCAUUUCGCCAAUCUTT against Mfap4 , please.
Result string: not fulfilled

Query string: Try this sequence too: GGAGGACGUAACUAAAUCATT against Napepld
Result string: not fulfilled

Query string: Okay, and GGUGUAGAAUAGGACAAAUTT against Ntsr2 ?
Result string: fulfilled

Query string: Also GCCUCAUCGUCAUCGCCAATT against Gpbar1 ?
Result string: not fulfilled

Query string: Same read-out for GGACACCACGUUCACCAAGTT against Rbm38 ?
Result string: not fulfilled
